# Measured target: OXA-48 (Klebsiella pneumoniae, UniProt Q6XEC0)
# Construct: hexahistidine (pOPINF, 3C-cleavable) (N, cleaved yes); made in house; host or cells: E. coli BL21(DE3)
# Sequence (Q6XEC0 23-265 limits assumed): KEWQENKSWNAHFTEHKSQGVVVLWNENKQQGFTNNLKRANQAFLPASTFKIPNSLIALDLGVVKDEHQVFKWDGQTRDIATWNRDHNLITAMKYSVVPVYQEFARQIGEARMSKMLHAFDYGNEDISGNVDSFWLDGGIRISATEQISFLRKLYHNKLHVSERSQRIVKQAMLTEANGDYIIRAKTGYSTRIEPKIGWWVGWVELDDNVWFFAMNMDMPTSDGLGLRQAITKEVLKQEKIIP
# Run description: FC5 fluorogenic β-lactamase inhibition assay, OXA-48
# Type: biochemical
pIC50: −log10 of the molar value.
Property name: pIC50

# get_value(readout= pIC50, system= OXA-48 (Klebsiella pneumoniae, UniProt Q6XEC0)) for CC1(C)[C@H](C(=O)O)N2C(=O)C[C@H]2S1(=O)=O [Sulbactam, sulbactam]
< 3.70

---

# Measured target: OXA-23 (Acinetobacter baumannii, UniProt Q9L4P2)
# Construct: hexahistidine (pOPINF, 3C-cleavable) (N, cleaved yes); made in house; host or cells: E. coli BL21(DE3)
# Sequence (Q9L4P2 18-273): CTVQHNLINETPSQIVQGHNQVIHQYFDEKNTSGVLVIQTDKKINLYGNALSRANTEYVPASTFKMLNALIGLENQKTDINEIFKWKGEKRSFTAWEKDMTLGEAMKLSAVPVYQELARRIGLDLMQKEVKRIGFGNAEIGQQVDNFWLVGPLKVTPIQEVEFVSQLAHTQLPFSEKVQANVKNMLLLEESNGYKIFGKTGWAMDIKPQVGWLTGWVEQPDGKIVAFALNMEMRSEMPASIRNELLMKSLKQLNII
# Run description: FC5 fluorogenic β-lactamase inhibition assay, OXA-23
# Format: biochemical
# Experimental context: read-out: IC50, nM (mean ± SD) for OXA-23; preincubation 10 min; FC5 substrate
Property name: IC50

Could you share which IC50 value was measured for CC1(C)[C@H](C(=O)O)N2C(=O)C[C@H]2S1(=O)=O [Sulbactam, sulbactam] ?
> 200000 nM

---

# Measured target: AmpC from P. aeruginosa (Pseudomonas aeruginosa, UniProt P24735)
# Construct: hexahistidine (pOPINF, 3C-cleavable) (N, cleaved yes); made in house; host or cells: E. coli BL21(DE3)
# Sequence (P24735 27-397): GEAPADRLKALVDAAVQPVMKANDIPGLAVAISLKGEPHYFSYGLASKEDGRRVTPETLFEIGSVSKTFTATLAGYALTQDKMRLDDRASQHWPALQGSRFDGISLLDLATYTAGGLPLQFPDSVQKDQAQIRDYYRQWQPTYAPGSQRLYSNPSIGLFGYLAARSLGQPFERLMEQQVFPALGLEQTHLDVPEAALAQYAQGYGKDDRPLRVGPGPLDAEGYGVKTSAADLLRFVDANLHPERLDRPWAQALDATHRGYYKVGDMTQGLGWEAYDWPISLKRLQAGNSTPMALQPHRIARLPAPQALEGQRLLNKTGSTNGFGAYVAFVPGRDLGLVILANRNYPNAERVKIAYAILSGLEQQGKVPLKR
# Run description: FC5 fluorogenic β-lactamase inhibition assay, AmpC
# Assay type: biochemical
# Experimental context: IC50, nM (mean ± SD) for AmpC, preincubation 0 min; FC5 substrate
Property name: IC50

Could you share which IC50 value was measured for CC1(C)[C@H](C(=O)O)N2C(=O)C[C@H]2S1(=O)=O [Sulbactam, sulbactam] ?
> 200000 nM

---

# Test system: K. pneumoniae KP15
# Run description: Broth microtiter dilution MIC, KP15
# Type: cell-based
# Experimental context: Klebsiella pneumoniae, TEM-1 (A), SHV-11 (A), KPC-2 (A), with cyclic boronate 2 (10 mg/liter) supplementation, read-out: MIC (mg/liter) for β-lactam
Provide the recorded MIC for the entries that follow.

Worked cases, answers included:
Cc1nnc(SCC2=C(C(=O)O)N3C(=O)[C@@H](NC(=O)Cn4cnnn4)[C@H]3SC2)s1 [FAZ, cefazolin] ... > 16 mg/L
CC1(C)S[C@@H]2[C@H](NC(=O)[C@H](N)c3ccccc3)C(=O)N2[C@H]1C(=O)O [AMP, ampicillin] ... > 16 mg/L
CCN1CCN(C(=O)N[C@@H](C(=O)N[C@@H]2C(=O)N3[C@@H]2SC(C)(C)[C@@H]3C(=O)O)c2ccccc2)C(=O)C1=O [PIP, piperacillin] ... > 64 mg/L
CC(C)(O/N=C(\C(=O)N[C@@H]1C(=O)N2C(C(=O)[O-])=C(C[n+]3ccccc3)CS[C@H]12)c1csc(N)n1)C(=O)O [CAZ, ceftazidime] ... 4 mg/L

Now consider the entry below.
# get_value(readout= MIC, system= K. pneumoniae KP15) for CO/N=C(\C(=O)N[C@@H]1C(=O)N2C(C(=O)[O-])=C(C[N+]3(C)CCCC3)CS[C@H]12)c1csc(N)n1 [FEP, cefepime]
≤ 4 mg/L

---

# Tested on: E. coli EC86
# Run description: Broth microtiter dilution MIC, EC86
# Assay type: cell-based
# Experimental context: Escherichia coli; E. coli EC86; CTX-M-15 (A), CMY-4 (C), OXA-181 (D); with cyclic boronate 2 (10 mg/liter) supplementation; read-out: MIC (mg/liter) for β-lactam
Provide the recorded MIC for the entries that follow.
Answers are plain numbers, in mg/L.

Worked cases, answers included:
C[C@@H](O)[C@H]1C(=O)N2C(C(=O)O)=C(S[C@@H]3CN[C@H](C(=O)Nc4cccc(C(=O)O)c4)C3)[C@H](C)[C@H]12 ... 4
CO/N=C(\C(=O)N[C@@H]1C(=O)N2C(C(=O)O)=C(CSc3nc(=O)c(=O)[nH]n3C)CS[C@H]12)c1csc(N)n1 ... 8

Now consider the entry below.
Could you share which MIC value was measured for "CC(C)(O/N=C(\C(=O)N[C@@H]1C(=O)N2C(C(=O)[O-])=C(C[n+]3ccccc3)CS[C@H]12)c1csc(N)n1)C(=O)O" ?
8
